pEC50: −log10 of the molar value.
For reference, pEC50 measured on C. elegans Slo-1a (Caenorhabditis elegans, UniProt Q95V25):

Completed entries (count: 3):
>>> df
                              record_smiles      reported
0  O=C(N[C@H]1CCOc2ccccc21)c1cnc2c(-c3cc(F)cc(F)c3F)c(F)ccc2c1N1CC(F)C1  7.50 to 8.50
1  CCc1c(C(=O)N[C@H]2CCOc3ccccc32)cnc2c(-c3cc(F)cc(F)c3F)c(Cl)ccc12        > 8.50
2  N#Cc1ccc2c(c1)[C@@H](NC(=O)c1cnc3c(-c4cc(F)cc(F)c4F)c(F)ccc3c1N1CC(F)C1)CCO2  6.50 to 7.50

In: What measured pEC50 is associated with O=C(N[C@H]1CCc2ccccc21)c1cnc2c(-c3cc(F)cc(F)c3F)c(F)ccc2c1C1CCOCC1 on C. elegans Slo-1a (Caenorhabditis elegans, UniProt Q95V25)?
Out: > 8.50

In: What measured pEC50 is associated with CC1(C)C[C@H](NC(=O)c2cnc3c(-c4cc(F)cc(F)c4F)c(F)ccc3c2N2CC(F)C2)c2ccccc2O1 on C. elegans Slo-1a (Caenorhabditis elegans, UniProt Q95V25)?
Out: 7.50 to 8.50

In: What measured pEC50 is associated with CCc1c(C(=O)N[C@H]2CCOc3ccccc32)cnc2c(-c3cc(F)cc(F)c3F)c(F)ccc12 on C. elegans Slo-1a (Caenorhabditis elegans, UniProt Q95V25)?
Out: > 8.50

In: What measured pEC50 is associated with O=C(N[C@H]1CCCc2ccccc21)c1cnc2c(-c3cc(F)cc(F)c3F)c(F)ccc2c1N1CC(F)C1 on C. elegans Slo-1a (Caenorhabditis elegans, UniProt Q95V25)?
Out: > 8.50

In: What measured pEC50 is associated with O=C(N[C@H]1CCOc2ccc(F)cc21)c1cnc2c(-c3cc(F)cc(F)c3F)c(F)ccc2c1N1CC(F)C1 on C. elegans Slo-1a (Caenorhabditis elegans, UniProt Q95V25)?
Out: > 8.50

In: What measured pEC50 is associated with O=C(N[C@H]1CCc2ccccc21)c1cnc2c(-c3cc(F)cc(F)c3F)c(F)ccc2c1N1CC(F)C1 on C. elegans Slo-1a (Caenorhabditis elegans, UniProt Q95V25)?
Out: > 8.50

In: What measured pEC50 is associated with O=C(N[C@H]1CCOc2ccccc21)c1cnc2c(-c3cc(F)cc(F)c3F)cccc2c1C1CCOCC1 on C. elegans Slo-1a (Caenorhabditis elegans, UniProt Q95V25)?
Out: > 8.50

In: What measured pEC50 is associated with COc1ccc2c(C3CCOCC3)c(C(=O)N[C@H]3CCOc4ccccc43)cnc2c1-c1cc(F)cc(F)c1F on C. elegans Slo-1a (Caenorhabditis elegans, UniProt Q95V25)?
Out: > 8.50

In: What measured pEC50 is associated with O=C(N[C@H]1CCc2ccccc21)c1cnc2c(-c3cc(F)cc(F)c3F)cccc2c1C1CCOCC1 on C. elegans Slo-1a (Caenorhabditis elegans, UniProt Q95V25)?
Out: > 8.50

In: What measured pEC50 is associated with O=C(N[C@H]1CCOc2ccccc21)c1cnc2c(-c3cc(F)cc(F)c3F)cccc2c1C1=CCOCC1 on C. elegans Slo-1a (Caenorhabditis elegans, UniProt Q95V25)?
Out: > 8.50

In: What measured pEC50 is associated with O=C(N[C@H]1CCOc2ccccc21)c1cnc2c(-c3cc(F)cc(F)c3F)cccc2c1N1CC(F)C1 on C. elegans Slo-1a (Caenorhabditis elegans, UniProt Q95V25)?
Out: > 8.50

###

# target_or_test_system: D. immitis Slo-1 (Dirofilaria immitis)
# Sequence (I0DFK5 1-1119): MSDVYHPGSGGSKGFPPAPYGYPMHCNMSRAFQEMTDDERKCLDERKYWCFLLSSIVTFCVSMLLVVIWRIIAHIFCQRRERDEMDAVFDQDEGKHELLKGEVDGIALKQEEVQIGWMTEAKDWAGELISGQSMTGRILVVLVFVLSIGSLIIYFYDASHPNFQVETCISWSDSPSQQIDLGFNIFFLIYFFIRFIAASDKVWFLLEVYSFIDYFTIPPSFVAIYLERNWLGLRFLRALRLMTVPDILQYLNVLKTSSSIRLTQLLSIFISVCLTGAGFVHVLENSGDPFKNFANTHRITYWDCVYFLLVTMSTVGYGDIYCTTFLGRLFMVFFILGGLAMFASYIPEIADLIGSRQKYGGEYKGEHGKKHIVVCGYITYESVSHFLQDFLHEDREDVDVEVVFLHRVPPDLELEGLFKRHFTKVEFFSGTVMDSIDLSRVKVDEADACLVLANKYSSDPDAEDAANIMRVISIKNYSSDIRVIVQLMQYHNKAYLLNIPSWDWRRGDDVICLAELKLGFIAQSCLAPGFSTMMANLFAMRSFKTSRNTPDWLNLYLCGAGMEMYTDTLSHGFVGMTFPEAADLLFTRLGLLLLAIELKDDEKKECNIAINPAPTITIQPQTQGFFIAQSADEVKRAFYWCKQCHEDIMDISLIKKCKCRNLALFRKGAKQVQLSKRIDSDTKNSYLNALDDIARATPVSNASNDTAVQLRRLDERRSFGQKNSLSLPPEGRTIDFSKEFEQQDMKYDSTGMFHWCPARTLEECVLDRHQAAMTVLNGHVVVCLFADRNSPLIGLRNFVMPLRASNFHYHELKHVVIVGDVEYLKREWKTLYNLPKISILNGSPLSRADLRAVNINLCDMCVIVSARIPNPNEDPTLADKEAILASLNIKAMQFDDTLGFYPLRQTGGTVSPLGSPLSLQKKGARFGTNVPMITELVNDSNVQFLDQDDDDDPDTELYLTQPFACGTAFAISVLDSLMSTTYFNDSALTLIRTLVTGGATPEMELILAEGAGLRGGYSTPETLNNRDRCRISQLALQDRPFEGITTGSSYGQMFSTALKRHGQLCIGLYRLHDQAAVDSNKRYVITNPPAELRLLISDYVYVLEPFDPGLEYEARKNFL
# protocol_summary: In vitro assay 2: D. immitis Slo-1, membrane potential in recombinant CHO cell line
pEC50: −log10 of the molar value.
The molecules listed here are annotated with their pEC50.

>>> print(df.to_string())
                                   molecule      reported
0  O=C(N[C@H]1CCOc2ccccc21)c1cnc2c(-c3cc(F)cc(F)c3F)cccc2c1N1CC(F)C1  6.50 to 7.50
1  Cc1ccc2c(c1)[C@@H](NC(=O)c1cnc3c(-c4cc(F)cc(F)c4F)c(F)ccc3c1N1CC(F)C1)CCO2  5.30 to 6.50
2  COc1ccc2c(C3CCOCC3)c(C(=O)N[C@H]3CCOc4ccccc43)cnc2c1-c1cc(F)cc(F)c1F  7.50 to 8.50

In: Given O=C(N[C@H]1CCOc2ccccc21)c1cnc2c(-c3cc(F)cc(F)c3F)cccc2c1C1CCOCC1 , state its recorded pEC50.
Out: 7.50 to 8.50

In: Given O=C(NC1CCSc2ccc(F)cc21)c1cnc2c(-c3cc(F)cc(F)c3F)c(F)ccc2c1N1CC(F)C1 (centres unmarked) , state its recorded pEC50.
Out: 5.30 to 6.50

###

The compounds listed here are annotated with their EC50.
# target_or_test_system: D. immitis Slo-1 (Dirofilaria immitis)
# protocol_summary: In vitro assay 2: D. immitis Slo-1, membrane potential in recombinant CHO cell line

Completed entries (count: 5):
>>> df
                                   compound         reported
0  O=C(N[C@H]1CCOc2ccccc21)c1cnc2c(-c3cc(F)cc(F)c3F)c(F)ccc2c1N1CC(F)C1  3.16 to 31.6 nM
1  O=C(N[C@H]1CCc2ccccc21)c1cnc2c(-c3cc(F)cc(F)c3F)c(F)ccc2c1N1CC(F)C1   31.6 to 316 nM
2  CC1(C)C[C@H](NC(=O)c2cnc3c(-c4cc(F)cc(F)c4F)c(F)ccc3c2N2CC(F)C2)c2ccccc2O1   316 to 5010 nM
3  O=C(N[C@H]1CCOc2ccccc21)c1cnc2c(-c3cc(F)cc(F)c3F)c(F)ccc2c1C1CCOCC1  3.16 to 31.6 nM
4  O=C(N[C@H]1CCc2ccccc21)c1cnc2c(-c3cc(F)cc(F)c3F)c(F)ccc2c1C1CCOCC1  3.16 to 31.6 nM

In: Given O=C(NC1COc2ccccc21)c1cnc2c(-c3cc(F)cc(F)c3F)cccc2c1C1CCOCC1 (racemic) , state its recorded EC50.
Out: 316 to 5010 nM

In: Given O=C(N[C@H]1CCOc2ccccc21)c1cnc2c(-c3cc(F)cc(F)c3F)c(F)ccc2c1C1=CCOCC1 , state its recorded EC50.
Out: 3.16 to 31.6 nM

In: Given CCc1c(C(=O)N[C@H]2CCOc3ccccc32)cnc2c(-c3cc(F)cc(F)c3F)c(F)ccc12 , state its recorded EC50.
Out: 3.16 to 31.6 nM

In: Given O=C(N[C@H]1CCCc2ccccc21)c1cnc2c(-c3cc(F)cc(F)c3F)cccc2c1C1CCOCC1 , state its recorded EC50.
Out: 31.6 to 316 nM

In: Given CC(C)Oc1ccc2c(C3CCOCC3)c(C(=O)N[C@H]3CCOc4ccccc43)cnc2c1-c1cc(F)cc(F)c1F , state its recorded EC50.
Out: 316 to 5010 nM

In: Given O=C(N[C@H]1CCOc2ccc(F)cc21)c1cnc2c(-c3cc(F)cc(F)c3F)c(F)ccc2c1N1CC(F)C1 , state its recorded EC50.
Out: 31.6 to 316 nM

In: Given CCc1c(C(=O)N[C@H]2CCc3ccccc32)cnc2c(-c3cc(F)cc(F)c3F)c(Cl)ccc12 , state its recorded EC50.
Out: 3.16 to 31.6 nM

In: Given N#Cc1ccc2c(c1)[C@@H](NC(=O)c1cnc3c(-c4cc(F)cc(F)c4F)c(F)ccc3c1N1CC(F)C1)CCO2 , state its recorded EC50.
Out: 316 to 5010 nM

In: Given O=C(N[C@H]1CCc2ccccc21)c1cnc2c(-c3cc(F)cc(F)c3F)cccc2c1C1CCOCC1 , state its recorded EC50.
Out: 316 to 5010 nM

In: Given O=C(N[C@H]1CCOc2ccccc21)c1cnc2c(-c3cc(F)cc(F)c3F)cccc2c1C1=CCOCC1 , state its recorded EC50.
Out: 31.6 to 316 nM

Recorded values, source patent US12559481B2.
